Target: T1, GFP-9S library array, motif 4 ND N98D;D124P (synthetic construct, N98D;D124P)
T1 chain: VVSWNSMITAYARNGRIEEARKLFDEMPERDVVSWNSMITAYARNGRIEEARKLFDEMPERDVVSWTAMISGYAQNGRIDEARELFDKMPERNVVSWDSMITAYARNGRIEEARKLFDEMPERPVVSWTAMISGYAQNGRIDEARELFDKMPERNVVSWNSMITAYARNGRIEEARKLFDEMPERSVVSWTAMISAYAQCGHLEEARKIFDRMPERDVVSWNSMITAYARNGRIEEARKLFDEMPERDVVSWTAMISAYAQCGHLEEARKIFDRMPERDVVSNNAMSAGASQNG
Assay: high-throughput RNA pulldown from lysate on Ni-NTA beads; HRP: 50 mM Tris pH 8, 150 mM NaCl, 1 mM beta-mercaptoethanol, 50 ug/ml BSA, 3 ug/ml yeast RNA, 0.5% heparin; ITC and FP: Tris pH 8, 200 mM KCl, 5% glycerol; MST: 50 mM Tris pH 8, 200 mM NaCl, 1 mM DTT, BSA, heparin, 0.05% Tween 20
Conditions: tags: N-terminal His-eGFP; label: 5' Cy5
measureName: Kd (nM)

binder	measureName	reading
AUUACACGUGA (ssRNA) [Cy5-rpoA]	Kd	202
AUUAGACGUGA (ssRNA) [Cy5-rpoA-G]	Kd	157
